Hi there, I'd appreciate the recorded IC50 (μg/ml) ·OH for every entry that follows.
Assay: Hydroxyl radical scavenging activity
Marks after values point to notes of the source that are not given here.

Kindly indicate its recorded IC50 (μg/ml) ·OH. Item: `O=C(O)C1=C[C@@H](O)[C@@H](O)[C@H](O)C1` 186.53 ± 7.56^d μg/ml

Report measured IC50 (μg/ml) ·OH; entry is Oc1cc(O)c2c(c1)OC1(c3ccc(O)c(O)c3)Oc3cc(O)c4c(c3C2C1O)OC(c1ccc(O)c(O)c1)C(O)C4 (stereo not shown) 126.57 ± 2.58^a μg/ml

Fill in IC50 (μg/ml) ·OH for record `O=C(O)/C=C/c1cccc(O)c1` 256.43 ± 9.33^f μg/ml

Check the records and state IC50 (μg/ml) ·OH for O=C(O)CCc1cccc(O)c1 [3-Hydroxyphenylpropionic acid, 3-hydroxyphenylpropionic acid] 841.57 ± 4.45^h μg/ml
